METHOD: Determination of inhibitor concentration in mouse plasma after intraperitoneal and oral dosing
Assay type: in vivo
MEASUREMENT CONDITIONS: female, PO, 200 mg/kg, vehicle 0.5% CMC, read-out: Cmax
compounds and their reported Cmax

CPD SMILES	RESULT
CCn1nc(C)cc1C(=O)Nc1cccc(C(=O)c2ccc3c(/C=C/c4ccccn4)n[nH]c3c2)c1.Cl	30 µg/mL

Note to self: Cmax recorded for Cc1cc(C(=O)Nc2cc(Nc3ccc4c(/C=C/c5ccccn5)n[nH]c4c3)ccc2F)n(C)n1.Cl was > 20 µg/mL

====

Readings of log10(Cmax) for the listed molecules
METHOD: Determination of inhibitor concentration in mouse plasma after intraperitoneal and oral dosing
Format: in vivo
MEASUREMENT CONDITIONS: PO, 50 mg/kg, vehicle PEG400:H2O pH 2.3 30:70
// do not treat as linear: log10 of Cmax, unit ng/mL

Worked cases, log10(Cmax) given:
MOLECULE	log10(Cmax)
CNC(=O)c1ccccc1Sc1ccc2c(/C=C/c3ccccn3)n[nH]c2c1	4.37
C[C@@H]1C[C@H]1C(=O)Nc1cccc(C(=O)c2ccc3c(/C=C/c4ccccn4)n[nH]c3c2)c1 (racemic)	3.61
Cc1ccc(CNC(=O)c2ccccc2Sc2ccc3c(/C=C/c4ccccn4)n[nH]c3c2)o1	0.85
O=C(c1cccc(NC(=O)C2C[C@H]2c2ccccc2)c1)c1ccc2c(/C=C/c3ccccn3)n[nH]c2c1 (stereo partly shown)	2.02
O=C(Nc1ccccc1)c1ccccc1Sc1ccc2c(/C=C/c3ccccn3)n[nH]c2c1	1.97
COc1cccc(C(=O)Nc2cccc(C(=O)c3ccc4c(/C=C/c5ccccn5)n[nH]c4c3)c2)c1	2.78
CCCNC(=O)c1ccccc1Sc1ccc2c(/C=C/c3ccccn3)n[nH]c2c1	3.25
Cn1nc(C(C)(C)C)cc1C(=O)Nc1cccc(C(=O)c2ccc3c(/C=C/c4ccccn4)n[nH]c3c2)c1	3.35
CCn1nc(C)cc1C(=O)Nc1cccc(Oc2ccc3c(/C=C/c4ccccn4)n[nH]c3c2)c1	4.89
Cc1cc(C(=O)Nc2cccc(C(=O)c3ccc4c(/C=C/c5ccccn5)n[nH]c4c3)c2)on1	0.70

Entry under test: O=C(Nc1cc(Nc2ccc3c(/C=C/c4ccccc4)n[nH]c3c2)ccc1F)c1ccccc1 . Its log10(Cmax) was 1.92

The value of log10(Cmax) measured for the molecule CCn1nc(C)cc1C(=O)Nc1cccc(C(=O)c2ccc3c(/C=C/c4ccccn4)n[nH]c3c2)c1 turned out to be 4.27

Record summary for O=C(Nc1cccc(Oc2ccc3c(/C=C/c4ccccn4)n[nH]c3c2)c1)c1ccccc1 : reported log10(Cmax) = 4.16
